biological target: Potassium voltage-gated channel subfamily KQT member 2 (Rattus norvegicus); test: rat KCNQ2 channel activation by compounds alone, confirmation, counter-screen for hERG block protector project, cell-based, CHO, FluxOR thallium flux (AID 1942); details: CHO-KCNQ2 cells, FluxOR thallium flux fluorescence; at 10 µM; active compounds read high
Screen size: about 2,400 compounds; about 580 (24%) were called active. These entries were drawn from the full list.
Please go through the items and note down their activity change.
Answers are plain numbers, in %.

Before answering, review these 7 worked examples.
molecule | activity change / %
O=C1NC(=O)N(CCNc2ncc(C(F)(F)F)cc2Cl)C(=O)C1Cc1ccc(Cl)cc1 (stereo not drawn) | -25.6
C=CCN1C(=O)/C(=C/c2ccc(Br)s2)C(=O)NC1=S | -20.2
O=C(O)CCC(=O)NCCC1=c2ccccc2=N/C1=C\c1c(O)n(Cc2ccc(F)cc2)c(=S)[nH]c1=O | -17.9
O=C1NC(=O)N(c2ccccc2)C(=O)/C1=C/c1ccc(Sc2ccccc2)o1 | -16.9
O=C(Cn1ncc2c3ccccc3n(Cc3ccccc3F)c2c1=O)N1CCC2(CC1)OCCO2 | 37
Cc1ccccc1N1C(=O)/C(=C/c2ccco2)C(=O)NC1=S | -6.4
O=C1NC(=S)N(c2ccc(F)cc2)C(=O)/C1=C/c1ccco1 | 0.7

Now look at this entry.
Form entry - test system: Potassium voltage-gated channel subfamily KQT member 2 (Rattus norvegicus); read-out: activity change; molecule: O=c1[nH]c(=S)[nH]c(O)c1/C=C1/C=c2ccccc2=N1 -27.3
